The entries below come with measured MFI values attached.
- TESTED ON: T1, human LILRB4 (human, UniProt Q8NHJ6 22-448)
- T1 construct: whole, on cells; also called hLILRB4
- MEASUREMENT NOTES: FACS, 293F-hLILRB4 cells

{"columns": ["BINDER", "MFI / MFI"],
 "data": [
  ["8-B3-F6-H8 (antibody, V domains shown, mouse monoclonal hybridoma antibody) VH: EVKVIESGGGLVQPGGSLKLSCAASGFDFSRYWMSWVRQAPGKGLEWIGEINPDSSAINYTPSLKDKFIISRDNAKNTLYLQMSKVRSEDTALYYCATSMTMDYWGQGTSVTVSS VL: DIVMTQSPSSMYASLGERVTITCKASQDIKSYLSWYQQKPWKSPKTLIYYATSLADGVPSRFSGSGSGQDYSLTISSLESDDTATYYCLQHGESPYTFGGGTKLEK", 1060],
  ["27-G5-E9-B8 (antibody, V domains shown, mouse monoclonal hybridoma antibody) VH: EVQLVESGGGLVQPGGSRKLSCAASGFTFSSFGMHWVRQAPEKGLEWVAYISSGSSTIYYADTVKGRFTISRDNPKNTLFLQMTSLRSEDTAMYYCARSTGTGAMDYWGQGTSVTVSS VL: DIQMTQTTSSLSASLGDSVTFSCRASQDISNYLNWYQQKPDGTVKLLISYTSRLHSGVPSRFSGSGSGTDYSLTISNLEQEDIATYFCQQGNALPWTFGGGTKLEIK", 213]
]}
